Target: T1, ActRIIB-Fc homodimer (human, UniProt Q13705 19-137)
T1 construct: extracellular domain; also called unmodified ActRIIB-Fc homodimer; ActRIIB-Fc:ActRIIB-Fc homodimer
T1 sequence (looked up): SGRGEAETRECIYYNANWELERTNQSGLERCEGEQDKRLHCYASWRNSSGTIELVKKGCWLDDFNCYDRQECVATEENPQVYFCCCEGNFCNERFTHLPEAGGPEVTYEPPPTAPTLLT
Experiment: SPR (Biacore), 37 C, anti-Fc capture, ligand in flow
Procedure: A Biacore™-based binding assay was used to compare the ligand binding kinetics of an ActRIIB-Fc:ActRIIB(L79E)-Fc heterodimer with those of unmodified ActRIIB-Fc homodimer. Fusion proteins were captured onto the system using an anti-Fc antibody. Ligands were then injected and allowed to flow over the captured receptor protein at 37° C. Results are summarized in the table below, in which ligand off-rates (kd) most indicative of effective ligand traps are denoted in bold.
metric: kon (M⁻¹ s⁻¹)

I: GDF3 (ligand, UniProt Q9NR23 251-364, looked up, also called VGR2) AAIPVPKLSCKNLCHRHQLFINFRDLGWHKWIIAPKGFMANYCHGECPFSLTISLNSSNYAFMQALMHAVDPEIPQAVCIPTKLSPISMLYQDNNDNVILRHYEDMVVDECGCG
II: activin A (ligand, UniProt P08476 311-426, looked up) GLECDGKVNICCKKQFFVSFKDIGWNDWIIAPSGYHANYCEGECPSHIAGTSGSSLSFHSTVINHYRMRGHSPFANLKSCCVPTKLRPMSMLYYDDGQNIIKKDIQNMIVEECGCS
Inquiry: Pick one: I or II . Which one has the lower reported kon? Select an item and report its label.
Reply text: I
